- test.target: the molecule itself
- test: FRET or BRET; spectrum-based periplasmic FRET (mNG donor, mCh acceptor, spectral unmixing, acceptor FRET efficiency EfA) in E. coli grown in Gb1 at 28°C, induced with 15 µM IPTG, fixed with 2.8% formaldehyde and 0.04% glutaraldehyde, measured in PBS in a spectrofluorimeter; where indicated cells treated with 2 µg/ml amdinocillin or 1 µg/ml aztreonam during induction; cut-off for interaction EfA above 1.4%
attribute.measured: EfA (acceptor FRET efficiency) (%)

INSERT INTO measurements (protein, unit_of_measurement, observed) VALUES
  ('PBP6b^S63G active-site mutant, fusions mNG-PBP6b^S63G and mCh-PBP6b^S63G (enzyme, Escherichia coli, UniProt P33013 22-388, looked up, PBP6b (dacD) of Escherichia coli with the active-site serine 63 changed to glycine; One molecule for the two differently tagged copies; source: E. coli, expressed from plasmids pSAV057 and pTHV037, in the periplasm of fixed cells; not shown: mNeonGreen (donor copy) or mCherry (acceptor copy), N-terminal, kept) AENIPFSPQPPEIHAGSWVLMDYTTGQILTAGNEHQQRNPAGLTKLMTGYVVDRAIDSHRITPDDIVTVGRDAWAKDNPVFVGSSLMFLKEGDRVSVRDLSRGLIVDSGNDACVALADYIAGGQRQFVEMMNNYAEKLHLKDTHFETVHGLDAPGQHSSAYDLAVLSRAIIHGEPEFYHMYSEKSLTWNGITQQNRNGLLWDKTMNVDGLKTGHTSGAGFNLIASAVDGQRRLIAVVMGADSAKGREEEARKLLRWGQQNFTTVQILHRGKKVGTERIWYGDKENIDLGTEQEFWMVLPKAEIPHIKAKYTLDGKELTAPISAHQRVGEIELYDRDKQVAHWPLVTLESVGEGSMFSRLSDYFHHKA', '%', 2),
  ('PBP6a (D,D-carboxypeptidase, dacC), fusions mNG-PBP6a and mCh-PBP6a (enzyme, Escherichia coli, UniProt P08506 28-400, looked up, PBP6a (dacC) of Escherichia coli; construct details in Text S7 and S8; One molecule for the two differently tagged copies; also called FP-PBP6a; source: E. coli, expressed from plasmids pSAV057 and pTHV037 (15 µM IPTG), in the periplasm of fixed cells; not shown: mNeonGreen (donor copy) or mCherry (acceptor copy), N-terminal, kept) AEQTVEAPSVDARAWILMDYASGKVLAEGNADEKLDPASLTKIMTSYVVGQALKADKIKLTDMVTVGKDAWATGNPALRGSSVMFLKPGDQVSVADLNKGVIIQSGNDACIALADYVAGSQESFIGLMNGYAKKLGLTNTTFQTVHGLDAPGQFSTARDMALLGKALIHDVPEEYAIHKEKEFTFNKIRQPNRNRLLWSSNLNVDGMKTGTTAGAGYNLVASATQGDMRLISVVLGAKTDRIRFNESEKLLTWGFRFFETVTPIKPDATFVTQRVWFGDKSEVNLGAGEAGSVTIPRGQLKNLKASYTLTEPQLTAPLKKGQVVGTIDFQLNGKSIEQRPLIVMENVEEGGFFGRVWDFVMMKFHQWFGSWFS', '%', 3.2);
